assay-text: Selectivity index, ratio of CC50 for cytotoxicity in African green monkey Vero cells to MIC for anti-mycobacterial activity against Mycobacterium tuberculosis H37Rv
Format: toxicity, cell-based
stated-conditions: read-out: Selectivity Index
Recorded selectivity ratio values for a group of molecules are listed next.
Keep the answer to the number alone.

Some molecules with recorded selectivity ratio:
structure-string	endpoint-name	reported-measurement
O=C1C(=O)N(Cc2cn(CC(=O)N3CCN(c4cc5c(cc4F)c(=O)c(C(=O)O)cn5C4CC4)CC3)nn2)c2ccccc21	selectivity ratio	32
CCO/N=C1/C(=O)N(Cc2cn(CC(=O)N3CCN(c4cc5c(cc4F)c(=O)c(C(=O)O)cn5C4CC4)CC3)nn2)c2ccc(F)cc21	selectivity ratio	0.5
CO/N=C1/C(=O)N(Cc2cn(CC(=O)N3CCN(c4cc5c(cc4F)c(=O)c(C(=O)O)cn5C4CC4)CC3)nn2)c2c(F)cccc21	selectivity ratio	1

Req: Fill in the blank: the reported selectivity ratio of CCO/N=C1/C(=O)N(Cc2cn(CC(=O)N3CCN(c4cc5c(cc4F)c(=O)c(C(=O)O)cn5C4CC4)CC3)nn2)c2ccc(C)cc21 is ____.
Resp: 1

Req: Fill in the blank: the reported selectivity ratio of CCO/N=C1/C(=O)N(Cc2cn(CC(=O)N3CCN(c4cc5c(cc4F)c(=O)c(C(=O)O)cn5C4CC4)CC3)nn2)c2c(F)cccc21 is ____.
Resp: 0.5

Req: Fill in the blank: the reported selectivity ratio of O=C(O)c1cn(C2CC2)c2cc(N3CCNCC3)c(F)cc2c1=O is ____.
Resp: 128

Req: Fill in the blank: the reported selectivity ratio of NNC(=O)c1ccncc1 is ____.
Resp: 512

Req: Fill in the blank: the reported selectivity ratio of CO/N=C1/C(=O)N(Cc2cn(CC(=O)N3CCN(c4cc5c(cc4F)c(=O)c(C(=O)O)cn5C4CC4)CC3)nn2)c2ccccc21 is ____.
Resp: 16

Req: Fill in the blank: the reported selectivity ratio of O=C1C(=O)N(Cc2cn(CC(=O)N3CCN(c4cc5c(cc4F)c(=O)c(C(=O)O)cn5C4CC4)CC3)nn2)c2ccc(F)cc21 is ____.
Resp: 32

Req: Fill in the blank: the reported selectivity ratio of CCO/N=C1/C(=O)N(Cc2cn(CC(=O)N3CCN(c4cc5c(cc4F)c(=O)c(C(=O)O)cn5C4CC4)CC3)nn2)c2ccccc21 is ____.
Resp: 2

Req: Fill in the blank: the reported selectivity ratio of CO/N=C1/C(=O)N(Cc2cn(CC(=O)N3CCN(c4cc5c(cc4F)c(=O)c(C(=O)O)cn5C4CC4)CC3)nn2)c2ccc(C)cc21 is ____.
Resp: 0.25

Req: Fill in the blank: the reported selectivity ratio of Cc1ccc2c(c1)C(=O)C(=O)N2Cc1cn(CC(=O)N2CCN(c3cc4c(cc3F)c(=O)c(C(=O)O)cn4C3CC3)CC2)nn1 is ____.
Resp: 16

Req: Fill in the blank: the reported selectivity ratio of CO/N=C1/C(=O)N(Cc2cn(CC(=O)N3CCN(c4cc5c(cc4F)c(=O)c(C(=O)O)cn5C4CC4)CC3)nn2)c2ccc(F)cc21 is ____.
Resp: 8

Req: Fill in the blank: the reported selectivity ratio of CO[C@H]1/C=C/O[C@@]2(C)Oc3c(C)c(O)c4c(O)c(c(/C=N/N5CCN(C)CC5)c(O)c4c3C2=O)NC(=O)/C(C)=C\C=C\[C@H](C)[C@H](O)[C@@H](C)[C@@H](O)[C@@H](C)[C@H](OC(C)=O)[C@@H]1C is ____.
Resp: 512

Req: Fill in the blank: the reported selectivity ratio of O=C1C(=O)N(Cc2cn(CC(=O)N3CCN(c4cc5c(cc4F)c(=O)c(C(=O)O)cn5C4CC4)CC3)nn2)c2c(F)cccc21 is ____.
Resp: 2
